- target-under-test: UniProt O70536
- protocol-summary: Percent change in plasma total cholesterol in an acute cholesterol-fed rat model of hypercholesterolemia, dose at 30 mg/kg
- Type: functional, organism-based
- Parameters: dose 30 mg/kg
assay-endpoint: Delta TC (%)
Write the answer as a number in %, unit excluded.

# returns recorded Delta TC (system: UniProt O70536) for "CCCCCCCCCCCCc1cc(NC(=O)Nc2c(C(C)C)cccc2C(C)C)on1"
-61

* * *

- target-under-test: Sterol O-acyltransferase 1 (Rattus norvegicus) (UniProt O70536)
- Sequence (O70536 whole entry): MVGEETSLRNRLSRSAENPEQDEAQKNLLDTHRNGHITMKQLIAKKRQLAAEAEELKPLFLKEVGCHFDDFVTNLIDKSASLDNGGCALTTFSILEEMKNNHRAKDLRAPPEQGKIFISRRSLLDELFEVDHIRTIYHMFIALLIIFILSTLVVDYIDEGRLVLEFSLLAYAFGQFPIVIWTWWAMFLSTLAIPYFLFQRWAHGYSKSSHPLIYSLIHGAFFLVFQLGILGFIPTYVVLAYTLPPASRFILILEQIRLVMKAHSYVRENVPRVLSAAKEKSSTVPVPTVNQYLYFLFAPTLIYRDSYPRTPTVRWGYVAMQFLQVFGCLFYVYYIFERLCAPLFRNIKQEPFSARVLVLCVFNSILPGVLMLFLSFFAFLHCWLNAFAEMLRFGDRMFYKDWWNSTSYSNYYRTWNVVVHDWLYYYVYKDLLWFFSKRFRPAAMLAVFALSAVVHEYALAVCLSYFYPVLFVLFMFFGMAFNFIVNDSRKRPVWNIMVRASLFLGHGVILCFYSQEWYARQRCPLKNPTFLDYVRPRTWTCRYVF
- protocol-summary: Percent change in plasma total cholesterol in an acute cholesterol-fed rat model of hypercholesterolemia, dose at 3 mg/kg
- Type: functional, organism-based
- Parameters: dose 3 mg/kg
assay-endpoint: Delta TC (%)
Write the answer as a number in %, unit excluded.

Examples with their reported Delta TC follow.
What value of Delta TC has been reported for the following compound? "CCCCCCCCCCCCCN1NN=C(NC(=O)Nc2c(C(C)C)cccc2C(C)C)N1"
-67

Query "CCCCCCCCCCCCCc1cc(NC(=O)Nc2c(C(C)C)cccc2C(C)C)no1" next
-59

Query "CCCCCCCCCCCCCCN1NN=C(NC(=O)Nc2c(C(C)C)cccc2C(C)C)N1" next
-56

Query "CCCCCCCCCCCCc1cc(NC(=O)Nc2c(C(C)C)cccc2C(C)C)on1" next
-58

Next:
What value of Delta TC has been reported for the following compound? "CCCCCCCCCCCN1NN=C(NC(=O)Nc2c(C(C)C)cccc2C(C)C)N1"
-63
